Just for reference, paper PMC7534383 is where these values come from.

Reported inhibition at 1 µM values follow for various compounds
Target: TYRO3 (Homo sapiens)
Sequence (Q06418 41-890): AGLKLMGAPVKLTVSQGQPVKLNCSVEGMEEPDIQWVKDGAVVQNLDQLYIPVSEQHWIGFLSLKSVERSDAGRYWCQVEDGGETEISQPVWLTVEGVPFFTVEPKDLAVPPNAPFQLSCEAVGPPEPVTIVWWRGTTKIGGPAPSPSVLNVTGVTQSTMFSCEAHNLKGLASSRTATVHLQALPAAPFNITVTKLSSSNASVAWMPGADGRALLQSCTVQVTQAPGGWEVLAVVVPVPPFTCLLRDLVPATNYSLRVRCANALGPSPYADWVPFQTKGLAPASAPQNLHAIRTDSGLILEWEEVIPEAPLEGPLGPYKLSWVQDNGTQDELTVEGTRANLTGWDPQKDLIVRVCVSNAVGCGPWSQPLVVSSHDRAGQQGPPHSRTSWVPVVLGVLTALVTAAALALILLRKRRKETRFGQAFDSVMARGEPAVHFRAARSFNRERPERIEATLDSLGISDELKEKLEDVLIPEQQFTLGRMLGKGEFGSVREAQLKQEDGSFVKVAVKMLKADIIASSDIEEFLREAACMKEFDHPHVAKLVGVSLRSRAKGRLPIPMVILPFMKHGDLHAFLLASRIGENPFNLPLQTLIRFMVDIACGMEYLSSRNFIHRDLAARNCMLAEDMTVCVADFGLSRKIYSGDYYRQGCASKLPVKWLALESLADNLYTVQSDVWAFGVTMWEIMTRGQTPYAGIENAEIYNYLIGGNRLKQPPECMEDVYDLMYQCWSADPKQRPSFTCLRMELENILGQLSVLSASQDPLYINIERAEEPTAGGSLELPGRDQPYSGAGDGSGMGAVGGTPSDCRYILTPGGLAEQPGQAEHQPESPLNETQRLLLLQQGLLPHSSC
Assay procedure: Kinase assay at Km ATP (Eurofins Discovery), Tyro3
Assay type: biochemical
Give your result in % as a bare value.

// known answers, use as guide
Compound: COc1ccc(-n2ccc3cnc(Nc4ccccc4)nc32)cc1
Target: TYRO3 (Homo sapiens)
Measured result: 44
--
Compound: COc1ccc(-n2ccc3cnc(Nc4cc(OC)cc(N5CCC6(CCCO6)CC5)c4)nc32)cc1
Target: TYRO3 (Homo sapiens)
Measured result: 0
--
Compound: COc1ccc(-n2ccc3cnc(Nc4cccc(OC)c4)nc32)cc1
Target: TYRO3 (Homo sapiens)
Measured result: 38
--
Compound: COc1ccc(-n2ccc3cnc(Nc4ccc(N5CCC(N(C)C)C5)c(OC)c4)nc32)cc1 (stereo not drawn)
Target: TYRO3 (Homo sapiens)
Measured result: 30
--
Compound: COc1cc(Nc2ncc3ccn(-c4ccccc4)c3n2)cc(N2CCC(N3CCCC3)CC2)c1
Target: TYRO3 (Homo sapiens)
Measured result: 35

Okay, next one:
# `COc1ccc(-n2ccc3cnc(Nc4cc(CN5CCN(C)CC5)cc(OC)c4)nc32)cc1` with TYRO3 (Homo sapiens): inhibition at 1 µM is 92
